system: ARCaPE cells; assay: Chemotherapeutic sensitivity, cell growth by MTT assay, ARCaPE cells; assay type: cell-based; conditions: Homo sapiens, in vitro growth, 96 hrs incubation

Compound	IC50 [µM]
COc1cc([C@@H]2c3cc4c(cc3[C@@H](O[C@@H]3O[C@@H]5CO[C@@H](C)O[C@H]5[C@H](O)[C@H]3O)[C@H]3COC(=O)[C@H]23)OCO4)cc(OC)c1O [etoposide]	8.1
CC(=O)O[C@H]1C(=O)[C@@]2(C)[C@H]([C@H](OC(=O)c3ccccc3)[C@]3(O)C[C@H](OC(=O)[C@H](O)[C@@H](NC(=O)c4ccccc4)c4ccccc4)C(C)=C1C3(C)C)[C@]1(OC(C)=O)CO[C@@H]1C[C@@H]2O	0.053
COc1cccc2c1C(=O)c1c(O)c3c(c(O)c1C2=O)C[C@@](O)(C(=O)CO)C[C@@H]3O[C@H]1C[C@H](N)[C@H](O)[C@H](C)O1	3.4
